- Test system: RV SA11 (G3P[2]) strain
- Assay Text: In vitro assay of RV replication inhibition (PFA)
- Format: cell-based, Rotavirus
- Cond: Rotavirus; SA11 strain in MA104 cells, MOI = 1, 24 h p.i., PFA; read-out: IC50
Assay Metric: IC50
Answers without a unit are incomplete; give the number and then its unit.

Task item: Could you share which IC50 value was measured for COC1=C2C[C@@H](C)C[C@H](OC)[C@H](O)[C@@H](C)/C=C(\C)[C@H](OC(N)=O)[C@@H](OC)/C=C\C=C(/C)C(=O)NC(=CC1=O)C2=O ?
Reply: 3.01 nM

* * *

- Tested on: RV SA11 (G3P[2]) strain
- Assay Text: In vitro assay of RV replication inhibition (PFA)
- Format: cell-based, Rotavirus
- Cond: SA11 strain in HT-29 cells, MOI = 1, 24 h p.i., PFA; read-out: IC50
- Method: For analysis of effects of different […] on RV replication in vitro, 10,000 MA104 cells, 30,000 Caco-2 cells, and 80,000 HT-29 cells in 100 µL complete DMEM medium were seeded in 96-well plates and cultured at 37°C and 5% CO2 for 24 h. Then the cells were infected with RV Wa or SA11 strains (MOI = 1 (PFU/cell)) for 1 h. […]
Assay Metric: pIC50
Scale: negative log10 of molar concentration, which is what pIC50 denotes.

Task item: # input molecule: COc1cccc(-c2cc(F)ccc2[C@H]2Cc3nc(N)nc(C)c3C(=O)N2)n1 ; wanted: its pIC50
Reply: 8.41

meta.source: paper PMC12817916
